Values compiled from paper PMC9781958.

Tested system: E. coli MurA (UDP-N-acetylglucosamine 1-carboxyvinyltransferase, EC:2.5.1.7) (Escherichia coli, UniProt P0A749)
Sequence (P0A749 whole entry): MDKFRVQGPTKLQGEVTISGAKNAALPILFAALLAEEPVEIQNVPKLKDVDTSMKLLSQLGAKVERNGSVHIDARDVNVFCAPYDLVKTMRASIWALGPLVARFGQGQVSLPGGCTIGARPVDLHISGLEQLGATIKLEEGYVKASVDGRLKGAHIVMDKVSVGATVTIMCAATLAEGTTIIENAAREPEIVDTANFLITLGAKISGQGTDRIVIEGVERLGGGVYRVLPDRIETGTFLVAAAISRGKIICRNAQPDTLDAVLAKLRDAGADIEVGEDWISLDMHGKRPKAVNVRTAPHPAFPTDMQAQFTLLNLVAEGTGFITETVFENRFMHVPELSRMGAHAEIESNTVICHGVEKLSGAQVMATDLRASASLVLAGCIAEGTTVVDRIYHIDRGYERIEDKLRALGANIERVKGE
Method: MurA inhibitory assay (colorimetric malachite green method)
Type: biochemical
Design: inferred from IMAC purification with imidazole elution; made in house; host or cells: Escherichia coli NiCo21(DE3)
Condition: Table 1, methylated heterocycles; read-out: MurA IC50 (µM) Methylated
Listing of entries alongside the reported IC50.
Just so you know, I need the unit written after the number.

Consider the worked cases shown below.
Cn1cc[n+](C)c1I
10.2 µM
C#Cc1cc[n+](C)cc1
64.7 µM
C[n+]1ccc(I)cc1
4.5 µM

Problem: Record request: IC50 value, item C[n+]1cccnc1I
Result: 2.99 µM
